Biological target: human PPARγ-LBD (Homo sapiens, UniProt P37231)
Construct: PPARγ-LBD (AAs 203–477 in isoform 1); made in house
Sequence (P37231 231-505): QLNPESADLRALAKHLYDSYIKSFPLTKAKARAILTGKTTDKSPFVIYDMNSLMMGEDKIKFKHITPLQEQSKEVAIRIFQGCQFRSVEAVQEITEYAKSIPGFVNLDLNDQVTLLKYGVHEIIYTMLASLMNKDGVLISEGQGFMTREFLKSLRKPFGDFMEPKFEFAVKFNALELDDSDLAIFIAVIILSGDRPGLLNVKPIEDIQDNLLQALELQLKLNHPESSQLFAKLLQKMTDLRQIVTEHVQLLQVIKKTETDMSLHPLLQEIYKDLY
Assay: TR-FRET coactivator recruitment assay, PPARγ-LBD
Assay type: biochemical
Conditions: read-out: PPARγ SRC1 % of GW1929 max response
measurement kind: Emax (%)

1) CCO[C@@H](Cc1ccc(OCCn2c(C)ccc2-c2ccc(SC)cc2)cc1)C(=O)O [Saroglitazar, saroglitazar]: 40

I: CC(C)(Oc1ccc(C(=O)c2ccc(Cl)cc2)cc1)C(=O)O [Fenofibric acid, fenofibric acid]
II: CC[C@@H](Oc1cccc(CN(CCCOc2ccc(OC)cc2)c2nc3ccccc3o2)c1)C(=O)O [Pemafibrate, pemafibrate]
Please state the entry with greater Emax among I and II . // respond with label for picked entry I
(I: 42%, II: 27.7%)

----------
Biological target: human PPARα-LBD (Homo sapiens, UniProt Q07869)
Construct: Human PPARα-LBD [amino acids (AAs) 200–468]; made in house
Assay: TR-FRET coactivator recruitment assay, PPARα-LBD
Type: biochemical
Details: read-out: PPARα SRC1 % of GW7647 max response
measurement kind: Emax (%)

1. CC[C@@H](Oc1cccc(CN(CCCOc2ccc(OC)cc2)c2nc3ccccc3o2)c1)C(=O)O [Pemafibrate, pemafibrate]: 101
2. CC(C)(Oc1ccc(CCNC(=O)c2ccc(Cl)cc2)cc1)C(=O)O [Bezafibrate, bezafibrate]: 72.4

1: CCO[C@@H](Cc1ccc(OCCn2c(C)ccc2-c2ccc(SC)cc2)cc1)C(=O)O
2: CCO[C@H](COc1ccc(C(F)(F)F)cc1)CSc1ccc(OCC(=O)O)c(C)c1
Please state the entry with greater Emax among 1 and 2 . // respond with label for picked entry 1
(1: 54.2%, 2: 15.5%)

----------
Biological target: human PPARδ-LBD (Homo sapiens, UniProt Q03181)
Construct: PPARδ-LBD (AAs 170–441); made in house
Sequence (Q03181 170-441): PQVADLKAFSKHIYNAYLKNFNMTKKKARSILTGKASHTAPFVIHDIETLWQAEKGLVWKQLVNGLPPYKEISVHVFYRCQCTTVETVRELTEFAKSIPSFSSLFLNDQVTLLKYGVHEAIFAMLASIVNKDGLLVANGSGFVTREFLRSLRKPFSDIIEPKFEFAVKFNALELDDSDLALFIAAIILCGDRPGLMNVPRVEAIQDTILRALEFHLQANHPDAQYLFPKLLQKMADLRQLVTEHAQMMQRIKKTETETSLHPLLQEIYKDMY
Assay: TR-FRET coactivator recruitment assay, PPARδ-LBD
Format: biochemical
Conditions: PGC1α peptide recruitment; Buffer A; read-out: PPARδ PGC1α EC50
measurement kind: EC50 (µM)

Known EC50 results, listed for orientation:
1) CCO[C@@H](Cc1ccc(OCCn2c(C)ccc2-c2ccc(SC)cc2)cc1)C(=O)O: 3.91
2) CC[C@@H](Oc1cccc(CN(CCCOc2ccc(OC)cc2)c2nc3ccccc3o2)c1)C(=O)O [Pemafibrate, pemafibrate]: 4.75

a: O=C(O)CCCc1cc2cc(Cl)ccc2n1S(=O)(=O)c1ccc2ncsc2c1
b: CCO[C@H](COc1ccc(C(F)(F)F)cc1)CSc1ccc(OCC(=O)O)c(C)c1
Please compare: a and b . Report which one has the smaller EC50 value. // respond with label for picked entry b

----------
Molecular target: human PPARγ-LBD (Homo sapiens)
Construct: PPARγ-LBD (AAs 203–477 in isoform 1); made in house
Assay: TR-FRET coactivator recruitment assay, PPARγ-LBD
Format: biochemical
Conditions: TRAP220 peptide recruitment; Buffer A; read-out: PPARγ TRAP220 EC50
measurement kind: EC50 (µM)

1. O=C(O)CCCc1cc2cc(Cl)ccc2n1S(=O)(=O)c1ccc2ncsc2c1: 5.07

I: CC[C@@H](Oc1cccc(CN(CCCOc2ccc(OC)cc2)c2nc3ccccc3o2)c1)C(=O)O [Pemafibrate, pemafibrate]
II: CCO[C@@H](Cc1ccc(OCCn2c(C)ccc2-c2ccc(SC)cc2)cc1)C(=O)O
III: CCO[C@H](COc1ccc(C(F)(F)F)cc1)CSc1ccc(OCC(=O)O)c(C)c1
Falling order of EC50, please. # output: labels, in the requested order III, II, I
(III: 13.6 µM, II: 8.43 µM, I: 5.59 µM)

----------
Target: human PPARδ-LBD (Homo sapiens)
Construct: PPARδ-LBD (AAs 170–441); made in house
Test: TR-FRET coactivator recruitment assay, PPARδ-LBD
Assay type: biochemical
Conditions: read-out: PPARδ TRAP220 % of GW501516 max response
measurement kind: Emax (%)

1: CSc1ccc(C(=O)/C=C/c2cc(C)c(OC(C)(C)C(=O)O)c(C)c2)cc1
2: CCO[C@H](COc1ccc(C(F)(F)F)cc1)CSc1ccc(OCC(=O)O)c(C)c1
Please compare: 1 and 2 . Report which one has the smaller Emax value. // respond with label for picked entry 1
(1: 44%, 2: 136%)

A: CC[C@@H](Oc1cccc(CN(CCCOc2ccc(OC)cc2)c2nc3ccccc3o2)c1)C(=O)O [Pemafibrate, pemafibrate]
B: CC(C)(Oc1ccc(C(=O)c2ccc(Cl)cc2)cc1)C(=O)O
Please compare: A and B . Report which one has the smaller Emax value. // respond with label for picked entry B
(B: 2.76%, A: 77.3%)

I: CCO[C@@H](Cc1ccc(OCCn2c(C)ccc2-c2ccc(SC)cc2)cc1)C(=O)O
II: O=C(O)CCCc1cc2cc(Cl)ccc2n1S(=O)(=O)c1ccc2ncsc2c1
Please state the entry with greater Emax among I and II . // respond with label for picked entry II
(II: 86.5%, I: 2.5%)

----------
Target: human PPARα-LBD (Homo sapiens, UniProt Q07869)
Construct: Human PPARα-LBD [amino acids (AAs) 200–468]; made in house
Assay: TR-FRET coactivator recruitment assay, PPARα-LBD
Type: biochemical
Settings: read-out: PPARα TRAP220 % of GW7647 max response
measurement kind: Emax (%)

Known Emax results, listed for orientation:
1) CC(C)(Oc1ccc(C(=O)c2ccc(Cl)cc2)cc1)C(=O)O: 86
2) O=C(O)CCCc1cc2cc(Cl)ccc2n1S(=O)(=O)c1ccc2ncsc2c1: 64.7
3) CC(C)(Oc1ccc(CCNC(=O)c2ccc(Cl)cc2)cc1)C(=O)O [Bezafibrate, bezafibrate]: 76.4
4) CCc1ccc(CCOc2ccc(CC3SC(=O)NC3=O)cc2)nc1 (centres unmarked): 3.67

P: CCO[C@H](COc1ccc(C(F)(F)F)cc1)CSc1ccc(OCC(=O)O)c(C)c1
Q: CC[C@@H](Oc1cccc(CN(CCCOc2ccc(OC)cc2)c2nc3ccccc3o2)c1)C(=O)O [Pemafibrate, pemafibrate]
R: CCO[C@@H](Cc1ccc(OCCn2c(C)ccc2-c2ccc(SC)cc2)cc1)C(=O)O
S: CSc1ccc(C(=O)/C=C/c2cc(C)c(OC(C)(C)C(=O)O)c(C)c2)cc1
Falling order of Emax, please. # output: labels, in the requested order Q, R, S, P

----------
Target: human PPARα-LBD (Homo sapiens)
Construct: Human PPARα-LBD [amino acids (AAs) 200–468]; made in house
Sequence (Q07869 200-468): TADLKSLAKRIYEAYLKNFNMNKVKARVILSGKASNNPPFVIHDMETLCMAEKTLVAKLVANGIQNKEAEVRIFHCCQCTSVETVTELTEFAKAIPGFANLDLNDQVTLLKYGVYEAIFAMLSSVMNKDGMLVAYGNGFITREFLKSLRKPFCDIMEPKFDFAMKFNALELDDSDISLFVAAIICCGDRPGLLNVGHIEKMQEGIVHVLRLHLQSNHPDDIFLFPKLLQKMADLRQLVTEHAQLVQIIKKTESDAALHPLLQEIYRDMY
Test: TR-FRET coactivator recruitment assay, PPARα-LBD
Format: biochemical
Details: CBP peptide recruitment; Buffer A; read-out: PPARα CBP EC50
measurement kind: EC50 (µM)

1. CSc1ccc(C(=O)/C=C/c2cc(C)c(OC(C)(C)C(=O)O)c(C)c2)cc1: 2.77
2. CC(C)(Oc1ccc(C(=O)c2ccc(Cl)cc2)cc1)C(=O)O: 3.41

a: CCO[C@@H](Cc1ccc(OCCn2c(C)ccc2-c2ccc(SC)cc2)cc1)C(=O)O
b: CCO[C@H](COc1ccc(C(F)(F)F)cc1)CSc1ccc(OCC(=O)O)c(C)c1
c: O=C(O)CCCc1cc2cc(Cl)ccc2n1S(=O)(=O)c1ccc2ncsc2c1
I would appreciate it if you could sort these 3 compounds by EC50, starting from the smallest number. # output: labels, in the requested order a, b, c
(a: 0.28 µM, b: 1.19 µM, c: 4.02 µM)

----------
Target: human PPARγ-LBD (Homo sapiens)
Construct: PPARγ-LBD (AAs 203–477 in isoform 1); made in house
Assay: TR-FRET coactivator recruitment assay, PPARγ-LBD
Type: biochemical
Settings: read-out: PPARγ SRC1 % of GW1929 max response
measurement kind: Emax (%)

Known Emax results, listed for orientation:
1. CCO[C@H](COc1ccc(C(F)(F)F)cc1)CSc1ccc(OCC(=O)O)c(C)c1 [Seladelpar, seladelpar]: 11.9
2. CC(C)(Oc1ccc(CCNC(=O)c2ccc(Cl)cc2)cc1)C(=O)O [Bezafibrate, bezafibrate]: 34

P: CSc1ccc(C(=O)/C=C/c2cc(C)c(OC(C)(C)C(=O)O)c(C)c2)cc1 [Elafibranor, elafibranor]
Q: O=C(O)CCCc1cc2cc(Cl)ccc2n1S(=O)(=O)c1ccc2ncsc2c1 [Lanifibranor, lanifibranor]
Please state the entry with greater Emax among P and Q . // respond with label for picked entry Q
(Q: 46.1%, P: 9.11%)
